The origin of these recorded values is ChEMBL document CHEMBL2424547.

# system.name: 11-beta-hydroxysteroid dehydrogenase 1 (Homo sapiens)
# Sequence (P28845 whole entry, looked up): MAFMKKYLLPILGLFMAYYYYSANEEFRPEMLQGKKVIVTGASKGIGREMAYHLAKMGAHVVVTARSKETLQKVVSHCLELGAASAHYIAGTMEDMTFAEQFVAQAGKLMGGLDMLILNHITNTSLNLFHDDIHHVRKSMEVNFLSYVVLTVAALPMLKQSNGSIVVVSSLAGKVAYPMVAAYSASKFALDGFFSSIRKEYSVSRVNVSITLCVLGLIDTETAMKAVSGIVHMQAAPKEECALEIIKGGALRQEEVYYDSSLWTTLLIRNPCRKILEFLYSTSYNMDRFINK
# protocol.notes: Inhibition of human 11beta-HSD1 expressed in HEK293 cells assessed as [1,2-3H]-cortisone reduction […] measured as residual activity at 20 uM after 10 mins relative to control in presence of NADPH
# Assay type: cell-based
measured.quantity: Activity (%)

Cn1c(N2CCN(S(=O)(=O)c3ccc(C(=O)NO)cc3)CC2)nc2ccccc21 :: 90
Cn1c(N2CCN(S(=O)(=O)c3cccc(C(=O)O)c3)CC2)nc2ccccc21 :: 75
Cc1ccc(S(=O)(=O)N2CCN(c3nc4ccccc4[nH]3)CC2)cc1 :: 50
Cn1c(N2CCN(S(=O)(=O)c3ccc(C(=O)O)cc3)CC2)nc2ccccc21 :: 90
Cn1c(N2CCN(S(=O)(=O)c3cccc(C(=O)NO)c3)CC2)nc2ccccc21 :: 60
Cc1ccc(S(=O)(=O)N2CCN(c3nc4ccccc4s3)CC2)cc1 :: 89
Cc1ccc(C(=O)N2CCN(c3nc4ccccc4[nH]3)CC2)cc1 :: 65
